Test system: Chromobacterium violaceum
Protocol Description: Inhibition of quorum sensing system in Chromobacterium violaceum ATCC 31532 assessed as inhibition of violacein pigment production measured per disk after 48 hrs by NCCLS disk diffusion method
INH values by entry
Answer format: numeric, µg implied, no suffix.

Example compounds with recorded INH:
C=C(C)[C@H]1CC/C(C)=C/CC[C@@](C)(Cl)[C@H](O)CC/C(COC(C)=O)=C/[C@@H]1O; 7.5
C=C(C)[C@H]1CC/C(C)=C/CCC(C)(C=O)CC/C(COC(C)=O)=C/[C@@H]1O (stereo partly drawn); 7.5
C=C(C)[C@H]1C[C@H](O)/C(C)=C/CC[C@@]2(C)O[C@@H]2CC/C(COC(C)=O)=C/[C@@H]1O; 30
C=C(C)[C@H]1CC/C(C)=C/C/C=C(/C)[C@@H](O)CC/C(COC(C)=O)=C\[C@@H]1OC(C)=O; 7.5
C=C(C)[C@H]1CC/C(C)=C/C/C=C(\C)[C@H](O)CC/C(COC(C)=O)=C\[C@@H]1OC(C)=O; 2.5

Name the recorded INH for `C=C(C)[C@@H]1CC[C@@H](C)[C@H](O)CC[C@H](C)CC2(O)C[C@@H](C)[C@@H](C1)O2` .
7.5

Name the recorded INH for `C=C(C)[C@H]1CC/C(C)=C/CC[C@@]2(C)O[C@H]1/C=C(\CO)CC[C@H]2O` .
30

Name the recorded INH for `C=C1CC/C=C(\C)CC[C@H](C(=C)C)[C@@H](O)/C=C(\COC(C)=O)CC[C@H]1O` .
7.5
